- measurementDescription: Apparent permeability in human Caco-2 cells incubated for 180 mins by LC-MS/MS method
- Type: ADME, cell-based
Positions of bridges follow the written chain, without caps; N, C: chain ends. Non-standard residues stand in square brackets, D forms with d. Residues, ends and D or L forms follow the SMILES beside them. *: point of attachment. hPhe(3-Cl-4-CF3) = N[C@@H](CCc1ccc(C(F)(F)F)c(Cl)c1)C(=O)O; NMeGly(cPent) = CN[C@H](C(=O)O)C1CCCC1; NMeCha = CN[C@@H](CC1CCCCC1)C(=O)O; NMeD = CN[C@@H](CC(=O)O)C(=O)O; NMeL = CN[C@@H](CC(C)C)C(=O)O; NMeV = CN[C@H](C(=O)O)C(C)C; NMeA = CN[C@@H](C)C(=O)O; Piperidide = C1CCN(*)CC1; Ac5c = NC1(C(=O)O)CCCC1; Aze = O=C(O)[C@@H]1CCN1; Sar = CNCC(=O)O
reportedMetric: Papp at 3 h (×10⁻⁶ cm/s)
Lab book: enter the figure in ×10⁻⁶ cm/s, no units written.

{"columns": ["compound", "measurementUnit", "Papp at 3 h"],
 "data": [
  ["CC[C@H](C)[C@@H]1NC(=O)[C@H](CC(C)C)N(C)C(=O)C[C@@H](C(=O)N2CCCCC2)N(C)C(=O)[C@H](C2CCCC2)N(C)C(=O)C2(CCCC2)NC(=O)[C@@H]2CCCN2C(=O)[C@H](CCc2ccc(C(F)(F)F)c(Cl)c2)NC(=O)CN(C)C(=O)[C@H](CC2CCCCC2)N(C)C(=O)[C@@H]2CCN2C(=O)[C@H](C)N(C)C1=O ([NMeL]I[NMeA][Aze][NMeCha][Sar][hPhe(3-Cl-4-CF3)]P[Ac5c][NMeGly(cPent)][NMeD]-Piperidide; lactam N-11)", "×10⁻⁶ cm/s", 0.61]
]}

Consider now this further compound.
-- ask Please report Papp at 3 h for the following compound: CC[C@H](C)[C@@H]1NC(=O)[C@H](CC(C)C)N(C)C(=O)C[C@@H](C(=O)N2CCCCC2)N(C)C(=O)[C@H](C(C)C)N(C)C(=O)C2(CCCC2)NC(=O)[C@@H]2CCCN2C(=O)[C@H](CCc2ccc(C(F)(F)F)c(Cl)c2)NC(=O)CN(C)C(=O)[C@H](CC2CCCCC2)N(C)C(=O)CN(C)C(=O)CN(C)C1=O ([NMeL]I[Sar][Sar][NMeCha][Sar][hPhe(3-Cl-4-CF3)]P[Ac5c][NMeV][NMeD]-Piperidide; lactam N-11)
-- reply 1.12

====

- measurementDescription: Oral bioavailability in Cynomolgus monkey at 10 mg/kg measured upto 24 hrs by LC-MS/MS analysis
- Format: ADME, organism-based, Macaca fascicularis
- conditionSummary: in vivo
Positions of bridges follow the written chain, without caps; N, C: chain ends. Non-standard residues stand in square brackets, D forms with d. Residues, ends and D or L forms follow the SMILES beside them. *: point of attachment. hPhe(3-Cl-4-CF3) = N[C@@H](CCc1ccc(C(F)(F)F)c(Cl)c1)C(=O)O; NMeGly(cPent) = CN[C@H](C(=O)O)C1CCCC1; NMeCha = CN[C@@H](CC1CCCCC1)C(=O)O; NMeD = CN[C@@H](CC(=O)O)C(=O)O; NMeL = CN[C@@H](CC(C)C)C(=O)O; NMeA = CN[C@@H](C)C(=O)O; Piperidide = C1CCN(*)CC1; Ac5c = NC1(C(=O)O)CCCC1; Aze = O=C(O)[C@@H]1CCN1; Sar = CNCC(=O)O
reportedMetric: bioavailability (%)
Answer with a number only, understood to be in %.

-- ask Give recorded bioavailability. CC[C@H](C)[C@@H]1NC(=O)[C@H](CC(C)C)N(C)C(=O)C[C@@H](C(=O)N2CCCCC2)N(C)C(=O)[C@H](C2CCCC2)N(C)C(=O)C2(CCCC2)NC(=O)[C@@H]2CCCN2C(=O)[C@H](CCc2ccc(C(F)(F)F)c(Cl)c2)NC(=O)CN(C)C(=O)[C@H](CC2CCCCC2)N(C)C(=O)[C@@H]2CCN2C(=O)[C@H](C)N(C)C1=O ([NMeL]I[NMeA][Aze][NMeCha][Sar][hPhe(3-Cl-4-CF3)]P[Ac5c][NMeGly(cPent)][NMeD]-Piperidide; lactam N-11)
-- reply 11

====

- measurementDescription: Half-life in BALB/c nude mouse at 1 mg/kg, iv measured upto 24 hrs by LC-MS/MS analysis
- Type: ADME, organism-based
- conditionSummary: in vivo
Positions of bridges follow the written chain, without caps; N, C: chain ends. Non-standard residues stand in square brackets, D forms with d. Residues, ends and D or L forms follow the SMILES beside them. *: point of attachment. hPhe(3-Cl-4-CF3) = N[C@@H](CCc1ccc(C(F)(F)F)c(Cl)c1)C(=O)O; NMeGly(cPent) = CN[C@H](C(=O)O)C1CCCC1; NMeCha = CN[C@@H](CC1CCCCC1)C(=O)O; NMeD = CN[C@@H](CC(=O)O)C(=O)O; NMeL = CN[C@@H](CC(C)C)C(=O)O; Morpholide = C1CN(*)CCO1; NMeA = CN[C@@H](C)C(=O)O; Piperidide = C1CCN(*)CC1; Ac5c = NC1(C(=O)O)CCCC1; Aze = O=C(O)[C@@H]1CCN1; Sar = CNCC(=O)O
// values below are reported half-life
Give your result in h as a bare value.

{"columns": ["compound", "measurementUnit", "measuredValue"],
 "data": [
  ["CC[C@H](C)[C@@H]1NC(=O)[C@H](CC(C)C)N(C)C(=O)C[C@@H](C(=O)N2CCCCC2)N(C)C(=O)[C@H](C2CCCC2)N(C)C(=O)C2(CCCC2)NC(=O)[C@@H]2CCCN2C(=O)[C@H](CCc2ccc(C(F)(F)F)c(Cl)c2)NC(=O)CN(C)C(=O)[C@H](CC2CCCCC2)N(C)C(=O)[C@@H]2CCN2C(=O)[C@H](C)N(C)C1=O ([NMeL]I[NMeA][Aze][NMeCha][Sar][hPhe(3-Cl-4-CF3)]P[Ac5c][NMeGly(cPent)][NMeD]-Piperidide; lactam N-11)", "h", 8.62]
]}

Would you kindly look at the next entry?
-- ask Please supply the value of reported half-life for the item CC[C@H](C)[C@@H]1NC(=O)[C@H](CC(C)C)N(C)C(=O)C[C@@H](C(=O)N2CCOCC2)N(C)C(=O)[C@H](C2CCCC2)N(C)C(=O)C2(CCCC2)NC(=O)[C@@H]2CCCN2C(=O)[C@H](CCc2ccc(C(F)(F)F)c(Cl)c2)NC(=O)CN(C)C(=O)[C@H](CC2CCCCC2)N(C)C(=O)[C@@H]2CCN2C(=O)[C@H](C)N(C)C1=O ([NMeL]I[NMeA][Aze][NMeCha][Sar][hPhe(3-Cl-4-CF3)]P[Ac5c][NMeGly(cPent)][NMeD]-Morpholide; lactam N-11)
-- reply 5.98

====

- measurementDescription: Apparent permeability in human Caco-2 cells incubated for 180 mins by LC-MS/MS method
- Type: ADME, cell-based
Starred links: 1 amine or outer side, 2 acyl side, 3 side chain; linkers in the order of their positions; H or OH if unused. Positions of bridges follow the written chain, without caps; N, C: chain ends. Non-standard residues stand in square brackets, D forms with d. Residues, ends and D or L forms follow the SMILES beside them. *: point of attachment. hPhe(3-Cl-4-CF3) = N[C@@H](CCc1ccc(C(F)(F)F)c(Cl)c1)C(=O)O; X2 = CN([C@@H](CC(=O)[*:2])C(=O)n1cccc1)[*:1]; NMePhe(4-Cl) = CN[C@@H](Cc1ccc(Cl)cc1)C(=O)O; X1 = O=C([C@H](CC(=O)[*:2])N[*:1])n1cccc1; Phe(3-Cl) = N[C@@H](Cc1cccc(Cl)c1)C(=O)O; NMeCha = CN[C@@H](CC1CCCCC1)C(=O)O; NMeGly(cPr) = CN[C@H](C(=O)O)C1CC1; NMeCba = CN[C@@H](CC1CCC1)C(=O)O; NMeChg = CN[C@H](C(=O)O)C1CCCCC1; NMeF = CN[C@@H](Cc1ccccc1)C(=O)O; NMeD = CN[C@@H](CC(=O)O)C(=O)O; NMeL = CN[C@@H](CC(C)C)C(=O)O; NMeV = CN[C@H](C(=O)O)C(C)C; NMeA = CN[C@@H](C)C(=O)O; Piperidide = C1CCN(*)CC1; Ac5c = NC1(C(=O)O)CCCC1; Aze = O=C(O)[C@@H]1CCN1; Sar = CNCC(=O)O
Label true (1) when Papp at 3 h < 0.9 ×10⁻⁶ cm/s; otherwise false (0).

# example entries with known answers
{"columns": ["compound", "labelValue"],
 "data": [
  ["CC[C@H](C)[C@@H]1NC(=O)[C@H](C)N(C)C(=O)C[C@@H](C(=O)n2cccc2)N(C)C(=O)[C@H](CC(C)C)N(C)C(=O)[C@H](Cc2ccccc2)N(C)C(=O)[C@H](Cc2ccccc2)NC(=O)[C@H](Cc2cccc(Cl)c2)NC(=O)CN(C)C(=O)[C@H](Cc2ccc(Cl)cc2)N(C)C(=O)CN(C)C(=O)CN(C)C1=O (cyclo(F[NMeF][NMeL][X2][NMeA]I[Sar][Sar][NMePhe(4-Cl)][Sar][Phe(3-Cl)]))", "true (1)"],
  ["CC[C@H](C)[C@@H]1NC(=O)[C@H](C)N(C)C(=O)C[C@@H](C(=O)n2cccc2)NC(=O)[C@H](C)N(C)C(=O)[C@H](Cc2ccccc2)N(C)C(=O)[C@H](Cc2ccccc2)NC(=O)[C@H](Cc2cccc(Cl)c2)NC(=O)CN(C)C(=O)[C@H](Cc2ccc(Cl)cc2)N(C)C(=O)CN(C)C(=O)CN(C)C1=O (cyclo(F[NMeF][NMeA][X1][NMeA]I[Sar][Sar][NMePhe(4-Cl)][Sar][Phe(3-Cl)]))", "true (1)"],
  ["CC[C@H](C)[C@@H]1NC(=O)[C@H](CC2CCC2)N(C)C(=O)C[C@@H](C(=O)N2CCCCC2)N(C)C(=O)[C@H](C(C)C)N(C)C(=O)C2(CCCC2)NC(=O)[C@@H]2CCCN2C(=O)[C@H](CCc2ccc(C(F)(F)F)c(Cl)c2)NC(=O)CN(C)C(=O)[C@H](CC2CCCCC2)N(C)C(=O)CN(C)C(=O)CN(C)C1=O ([NMeCba]I[Sar][Sar][NMeCha][Sar][hPhe(3-Cl-4-CF3)]P[Ac5c][NMeV][NMeD]-Piperidide; lactam N-11)", "true (1)"],
  ["CC[C@H](C)[C@@H]1NC(=O)[C@H](CC(C)C)N(C)C(=O)C[C@@H](C(=O)N2CCCCC2)N(C)C(=O)[C@H](C2CC2)N(C)C(=O)C2(CCCC2)NC(=O)[C@@H]2CCCN2C(=O)[C@H](CCc2ccc(C(F)(F)F)c(Cl)c2)NC(=O)CN(C)C(=O)[C@H](CC2CCCCC2)N(C)C(=O)[C@@H]2CCN2C(=O)[C@H](C)N(C)C1=O ([NMeL]I[NMeA][Aze][NMeCha][Sar][hPhe(3-Cl-4-CF3)]P[Ac5c][NMeGly(cPr)][NMeD]-Piperidide; lactam N-11)", "false (0)"]
]}

Consider now this further compound.
-- ask Hello, is Papp at 3 h of the following compound strictly smaller than 0.9 ×10⁻⁶ cm/s? CC[C@H](C)[C@@H]1NC(=O)[C@H](CC2CCCCC2)N(C)C(=O)C[C@@H](C(=O)N2CCCCC2)N(C)C(=O)[C@H](C2CCCCC2)N(C)C(=O)C2(CCCC2)NC(=O)[C@@H]2CCCN2C(=O)[C@H](CCc2ccc(C(F)(F)F)c(Cl)c2)NC(=O)CN(C)C(=O)[C@H](CC2CCCCC2)N(C)C(=O)CN(C)C(=O)CN(C)C1=O ([NMeCha]I[Sar][Sar][NMeCha][Sar][hPhe(3-Cl-4-CF3)]P[Ac5c][NMeChg][NMeD]-Piperidide; lactam N-11)
-- reply true (1)
